# reported LOG KEVA-W (EVA-water partition coefficient) POG; entries follow
Type: physicochemical
Format: numeric value only, no unit, no commentary.

smiles-data: Brc1ccc(Oc2ccc(Br)cc2Br)c(Br)c1
quantitative-readout: 6.43
//
smiles-data: Brc1ccc(Oc2ccccc2Br)c(Br)c1
quantitative-readout: 6.01
//
smiles-data: Brc1ccc(Oc2ccc(Br)c(Br)c2)c(Br)c1
quantitative-readout: 6.25
//
smiles-data: Brc1ccc(Oc2c(Br)cccc2Br)cc1Br
quantitative-readout: 6.24

Record summary for Brc1ccc(Oc2ccc(Br)cc2Br)cc1 : reported LOG KEVA-W (EVA-water partition coefficient) POG = 5.90
